TARGET_ENTITY: P2X purinoceptor 7 (Homo sapiens, UniProt Q99572)
Sequence (Q99572 whole entry): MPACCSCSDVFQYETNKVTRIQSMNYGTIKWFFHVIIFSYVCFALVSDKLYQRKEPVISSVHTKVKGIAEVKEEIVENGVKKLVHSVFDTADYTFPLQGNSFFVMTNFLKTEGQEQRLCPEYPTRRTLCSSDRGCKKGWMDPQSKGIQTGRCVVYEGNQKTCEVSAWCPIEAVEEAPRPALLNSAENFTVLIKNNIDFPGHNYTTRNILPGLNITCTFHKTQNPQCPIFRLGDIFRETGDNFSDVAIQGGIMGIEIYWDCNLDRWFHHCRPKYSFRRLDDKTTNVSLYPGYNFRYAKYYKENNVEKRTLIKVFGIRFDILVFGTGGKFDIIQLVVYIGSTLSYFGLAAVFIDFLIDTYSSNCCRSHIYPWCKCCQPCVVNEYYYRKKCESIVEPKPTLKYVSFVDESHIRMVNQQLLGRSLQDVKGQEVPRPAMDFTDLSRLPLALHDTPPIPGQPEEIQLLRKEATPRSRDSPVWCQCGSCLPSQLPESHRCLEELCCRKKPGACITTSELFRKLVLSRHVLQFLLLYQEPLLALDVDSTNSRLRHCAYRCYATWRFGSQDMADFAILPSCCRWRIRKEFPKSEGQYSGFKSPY
EXPERIMENT_DESCRIPTION: Antagonist activity at human P2X7 receptor expressed in HEK293 cells assessed as reduction in benzoyl-ATP-induced YO-PRO-1 dye uptake pre-incubated for 20 mins before YO-PRO-1 addition and measured after 25 mins by fluorescence plate reader analysis relative to control
Assay type: cell-based
pIC50: −log10 of the molar value.
EXPERIMENTAL_READOUT: pIC50

Example cases with answers are listed next.
[[record]]
smiles_str = "O=C(Cn1cnc2c(Cl)nc(Cl)nc21)c1ccc(Cl)cc1Cl"
target_entity = "P2X purinoceptor 7 (Homo sapiens, UniProt Q99572)"
meas_value = 4.89

[[record]]
smiles_str = "O=C(Cn1cnc2c(Cl)ncnc21)c1ccc(Cl)cc1"
target_entity = "P2X purinoceptor 7 (Homo sapiens, UniProt Q99572)"
meas_value = 5.00

[[record]]
smiles_str = "O=S(=O)(c1ccccc1Cl)n1cnc2c(Cl)nc(Cl)nc21"
target_entity = "P2X purinoceptor 7 (Homo sapiens, UniProt Q99572)"
meas_value = 4.99

[[record]]
smiles_str = "O=C(Cn1cnc2c(Cl)ncnc21)c1ccc(Cl)cc1Cl"
target_entity = "P2X purinoceptor 7 (Homo sapiens, UniProt Q99572)"
meas_value = 5.05


a: Cn1c(=O)c2c(ncn2S(=O)(=O)c2ccccc2Cl)n(C)c1=O
b: O=C(Cn1cnc2c(-c3ccccc3)ncnc21)c1ccc(Cl)cc1Cl
Q: Response body: label of entry with the larger pIC50; valid values a , b . // caller expects the label of the chosen entry
Result: b
(b: 5.22, a: 5.00)

----------
TARGET_ENTITY: P2X purinoceptor 7 (Homo sapiens) (UniProt Q99572)
EXPERIMENT_DESCRIPTION: Antagonist activity at human P2X7 receptor expressed in HEK293 cells assessed as reduction in benzoyl-ATP-induced YO-PRO-1 dye uptake at 10 uM pre-incubated for 20 mins before YO-PRO-1 addition and measured after 25 mins by fluorescence plate reader analysis relative to control
Assay type: cell-based
TEST_CONDITIONS: time 45.0 min
inhibition values for the compounds below.

Use these answered entries as a reference point.
[[record]]
smiles_str = "Nc1nc(Cl)c2ncn(S(=O)(=O)c3ccccc3Cl)c2n1"
target_entity = "P2X purinoceptor 7 (Homo sapiens) (UniProt Q99572)"
meas_value = "9%"

[[record]]
smiles_str = "O=C(Cn1cnc2c(I)nc(Cl)nc21)c1ccc(Cl)cc1Cl"
target_entity = "P2X purinoceptor 7 (Homo sapiens) (UniProt Q99572)"
meas_value = "14%"

[[record]]
smiles_str = "Nc1nc(Cl)c2ncn(CC(=O)c3ccc(Cl)cc3Cl)c2n1"
target_entity = "P2X purinoceptor 7 (Homo sapiens) (UniProt Q99572)"
meas_value = "4%"

[[record]]
smiles_str = "O=S(=O)(c1ccccc1Cl)n1cnc2c(Cl)ncnc21"
target_entity = "P2X purinoceptor 7 (Homo sapiens) (UniProt Q99572)"
meas_value = "17%"

[[record]]
smiles_str = "O=C(c1ccccc1Cl)n1cnc2c(Cl)ncnc21"
target_entity = "P2X purinoceptor 7 (Homo sapiens) (UniProt Q99572)"
meas_value = "7%"

[[record]]
smiles_str = "Cn1cnc2c(=O)n(Cc3ccccc3Cl)c(Cl)nc21"
target_entity = "P2X purinoceptor 7 (Homo sapiens) (UniProt Q99572)"
meas_value = "16%"


Next, consider the following compound.
Q: Which value of inhibition has been reported for "O=C(Cn1cnc2c(Cl)nc(F)nc21)c1ccc(Cl)cc1Cl" in the records?
Result: 27%

----------
TARGET_ENTITY: P2X purinoceptor 7 (Homo sapiens) (UniProt Q99572)
EXPERIMENT_DESCRIPTION: Antagonist activity at human P2X7 receptor expressed in Xenopus laevis oocytes assessed as reduction in ATP-induced channel currents at 100 uM by TEVC electrophysiology assay relative to control
Assay type: cell-based
TEST_CONDITIONS: Oocyte
Active and inactive are the calls of the source. The rule behind the calls is not given here.
EXPERIMENTAL_READOUT: inhibition

[[record]]
smiles_str = "Cn1c(=O)c2c(ncn2S(=O)(=O)c2ccc(F)cc2Cl)n(C)c1=O"
meas_value = "inactive"

[[record]]
smiles_str = "Cn1c(=O)c2c(ncn2S(=O)(=O)c2ccc(Cl)cc2Cl)n(C)c1=O"
meas_value = "9%"

[[record]]
smiles_str = "Cc1cc(F)ccc1S(=O)(=O)n1cnc2c1c(=O)n(C)c(=O)n2C"
meas_value = "inactive"

[[record]]
smiles_str = "O=C(Cn1cnc2c(I)nc(Cl)nc21)c1ccc(Cl)cc1Cl"
meas_value = "6%"


Q: Could you share which inhibition value was measured for "Cn1c(=O)c2c(ncn2S(=O)(=O)c2ccc(F)cc2)n(C)c1=O" ?
Result: inactive

Q: Give the measured inhibition of "Nc1nc(Cl)c2ncn(CC(=O)c3ccc(Cl)cc3Cl)c2n1" .
Result: 6%

Q: Fill in: inhibition of "COc1ncnc2c1ncn2S(=O)(=O)c1ccccc1Cl" is ___
Result: 8%

Q: // query inhibition value for entry "Cn1c(=O)c2c(ncn2S(=O)(=O)c2ccccc2Cl)n(C)c1=O"
Result: 28%

Q: Please look up its inhibition: "CNc1nc(Cl)nc2c1ncn2CC(=O)c1ccc(Cl)cc1Cl"
Result: 5%

Q: Give the measured inhibition of "O=C(Cn1cnc2c(Cl)nc(Cl)nc21)c1ccc(Cl)cc1Cl" .
Result: 24%

Q: Would you kindly share the measured inhibition for "O=C(c1ccccc1Cl)n1cnc2c(Cl)ncnc21" ?
Result: 5%

Q: For the compound "Cn1c(=O)c2c(ncn2CC(=O)c2ccc(Cl)cc2Cl)n(C)c1=O" , what inhibition is on record?
Result: 10%

----------
TARGET_ENTITY: P2X purinoceptor 7 (Homo sapiens) (UniProt Q99572)
Sequence (whole entry): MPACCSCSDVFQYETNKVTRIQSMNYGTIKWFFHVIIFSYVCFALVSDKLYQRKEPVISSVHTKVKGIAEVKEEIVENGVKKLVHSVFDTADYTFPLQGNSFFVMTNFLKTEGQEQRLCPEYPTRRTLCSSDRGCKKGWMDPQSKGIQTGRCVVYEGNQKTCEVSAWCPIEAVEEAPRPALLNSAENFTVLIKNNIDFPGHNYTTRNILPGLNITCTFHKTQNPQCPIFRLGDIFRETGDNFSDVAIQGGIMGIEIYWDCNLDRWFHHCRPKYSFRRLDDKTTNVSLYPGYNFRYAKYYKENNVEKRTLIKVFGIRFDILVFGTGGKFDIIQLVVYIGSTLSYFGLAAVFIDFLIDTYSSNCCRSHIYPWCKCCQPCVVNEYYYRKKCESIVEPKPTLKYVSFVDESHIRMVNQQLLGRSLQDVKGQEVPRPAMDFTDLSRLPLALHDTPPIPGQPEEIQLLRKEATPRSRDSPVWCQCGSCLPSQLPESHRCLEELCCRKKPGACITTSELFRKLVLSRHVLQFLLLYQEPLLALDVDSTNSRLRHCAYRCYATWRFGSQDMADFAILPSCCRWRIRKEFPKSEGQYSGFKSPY
EXPERIMENT_DESCRIPTION: Antagonist activity at human P2X7 receptor expressed in HEK293 cells assessed as reduction in benzoyl-ATP-induced YO-PRO-1 dye uptake at 10 uM pre-incubated for 20 mins before YO-PRO-1 addition and measured after 25 mins by fluorescence plate reader analysis relative to control
Assay type: cell-based
TEST_CONDITIONS: filed as antagonist, time 45.0 min
EXPERIMENTAL_READOUT: inhibition (%)

[[record]]
smiles_str = "O=C(Cn1cnc2c(Cl)nc(Cl)nc21)c1ccc(Cl)cc1Cl"
meas_value = 41

[[record]]
smiles_str = "O=C(Cn1cnc2c(Cl)ncnc21)c1ccc(Cl)cc1Cl"
meas_value = 63

[[record]]
smiles_str = "Cn1c(=O)c2c(ncn2S(=O)(=O)c2ccccc2Cl)n(C)c1=O"
meas_value = 52

[[record]]
smiles_str = "O=C(Cn1cnc2c(-c3ccccc3)ncnc21)c1ccc(Cl)cc1Cl"
meas_value = 62

[[record]]
smiles_str = "O=S(=O)(c1ccccc1Cl)n1cnc2c(Cl)nc(Cl)nc21"
meas_value = 46

[[record]]
smiles_str = "O=C(Cn1cnc2c(Cl)ncnc21)c1ccc(Cl)cc1"
meas_value = 55


Data provenance: ChEMBL document CHEMBL4706687
